# experimental protocol: Clearance in iv dosed over hydrated human
# Assay type: ADME, organism-based
# condition context: in vivo
measured attribute: clearance (mL/min/kg)
One number for each entry, in mL/min/kg.

The compound listed as `NC(=O)CC[C@@H]1NC(=O)[C@H](Cc2ccccc2)NC(=O)[C@H](Cc2ccc(O)cc2)NC(=O)CCSSC[C@@H](C(=O)N2CCC[C@H]2C(=O)N[C@H](CCCN=C(N)N)C(=O)NCC(N)=O)NC(=O)[C@H](CC(N)=O)NC1=O` has a reported clearance of 1.7

###

Hi there, I'd appreciate the recorded CL for every entry that follows.
# experimental protocol: Non-renal clearance in nephrectomized Sprague-Dawley rat at 0.1 mg/kg, iv administered as cassette dose by LC-MS/MS analysis
# Assay type: ADME, organism-based
# condition context: in vivo
Numbered stars: 1 amine (or outer) side, 2 acyl side, 3 side chain; on linkers, the order of the positions; unused ones are H or OH. Bridge positions count the residues as written; N and C are the ends. Square brackets hold non-standard residues; d marks the D form. Peptide text beside a SMILES is read from it. * marks the point of attachment. Phe(4-Cl) = N[C@@H](Cc1ccc(Cl)cc1)C(=O)O; Phe(4-F) = N[C@@H](Cc1ccc(F)cc1)C(=O)O; Agmatine = N=C(N)NCCCCN*; Thz = O=C(O)[C@@H]1CSCN1; X1 = O=C(CCC[*:2])[*:1]
One number for each entry, in %.

CCNC(=O)[C@@H](CCCNC(=N)N)NC(=O)[C@@H]1C[C@@H](O)CN1C(=O)[C@@H]1CCSCCC(=O)N[C@@H](Cc2ccc(Cl)cc2)C(=O)N[C@@H](Cc2cccs2)C(=O)N[C@@H](C(C)C)C(=O)N[C@@H](CC(N)=O)C(=O)N1    58

Provide each entry's CL from the list below.
1. CC(C)[C@@H]1NC(=O)[C@H](Cc2ccc(F)cc2)NC(=O)[C@H](Cc2ccc(Cl)cc2)NC(=O)CCCSC[C@@H](C(=O)N2CSC[C@H]2C(=O)NCCCCNC(=N)N)NC(=O)[C@H](CC(N)=O)NC1=O ([Phe(4-Cl)][Phe(4-F)]VNC[Thz]-Agmatine; linker N-5 via X1)
2. CC(C)[C@@H]1NC(=O)[C@H](Cc2cccs2)NC(=O)[C@H](Cc2ccc(Cl)cc2)NC(=O)CCCSC[C@@H](C(=O)N2CCC[C@H]2C(=O)N[C@H](CCCNC(=N)N)C(=O)NCc2ccccc2)NC(=O)[C@H](CC(N)=O)NC1=O

85
84

CL in this record for `CCCCNC(=O)[C@@H](CCCNC(=N)N)NC(=O)[C@@H]1CCCN1C(=O)[C@@H]1CSCCCC(=O)N[C@@H](Cc2ccc(Cl)cc2)C(=O)N[C@@H](Cc2cccs2)C(=O)N[C@@H](C(C)C)C(=O)N[C@@H](CC(N)=O)C(=O)N1` : 57

###

# experimental protocol: Clearance in Sprague-Dawley rat at 0.1 mg/kg, iv administered as cassette dose by LC-MS/MS analysis
# Assay type: ADME, organism-based
# condition context: in vivo
Numbered stars: 1 amine (or outer) side, 2 acyl side, 3 side chain; on linkers, the order of the positions; unused ones are H or OH. Bridge positions count the residues as written; N and C are the ends. Square brackets hold non-standard residues; d marks the D form. Peptide text beside a SMILES is read from it. * marks the point of attachment. Phe(4-Cl) = N[C@@H](Cc1ccc(Cl)cc1)C(=O)O; 2Thi = N[C@@H](Cc1cccs1)C(=O)O; X4 = N=C(N)NCCC[C@@H](CO)N*; X1 = O=C(CCC[*:2])[*:1]
I'd appreciate it if you could supply clearance values for the items below.
Answers are plain numbers, in mL/min/kg.

CC(C)[C@@H]1NC(=O)[C@H](Cc2cccs2)NC(=O)[C@H](Cc2ccc(Cl)cc2)NC(=O)CCCSC[C@@H](C(=O)N2CCC[C@H]2C(=O)N[C@H](CO)CCCNC(=N)N)NC(=O)[C@H](CC(N)=O)NC1=O ([Phe(4-Cl)][2Thi]VNCP-X4; linker N-5 via X1)    8.1
CC(C)[C@@H]1NC(=O)[C@H](Cc2ccc(F)cc2)NC(=O)[C@H](Cc2ccc(Cl)cc2)NC(=O)CCCSC[C@@H](C(=O)N2CSC[C@H]2C(=O)N[C@H](CCCNC(=N)N)C(=O)NCCc2cccs2)NC(=O)[C@H](CC(N)=O)NC1=O    27
CCCNC(=O)[C@@H](CCCNC(=N)N)NC(=O)[C@@H]1CCCN1C(=O)[C@@H]1CSCCCC(=O)N[C@@H](Cc2ccc(Cl)cc2)C(=O)N[C@@H](Cc2cccs2)C(=O)N[C@@H](C(C)C)C(=O)N[C@@H](CC(N)=O)C(=O)N1    26
CC(C)NC(=O)[C@@H](CCCNC(=N)N)NC(=O)[C@@H]1CCCN1C(=O)[C@@H]1CSCCCC(=O)N[C@@H](Cc2ccc(Cl)cc2)C(=O)N[C@@H](Cc2cccs2)C(=O)N[C@@H](C(C)C)C(=O)N[C@@H](CC(N)=O)C(=O)N1    15
CNC(=O)[C@@H](CCCNC(=N)N)NC(=O)[C@@H]1CCCN1C(=O)[C@@H]1CSCCCC(=O)N[C@@H](Cc2ccc(Cl)cc2)C(=O)N[C@@H](Cc2cccs2)C(=O)N[C@@H](C(C)C)C(=O)N[C@@H](CC(N)=O)C(=O)N1    9.1

Would you mind giving clearance for every compound in the list below?
1. CC(C)CNC(=O)[C@@H](CCCNC(=N)N)NC(=O)[C@@H]1CCCN1C(=O)[C@@H]1CSCCCC(=O)N[C@@H](Cc2ccc(Cl)cc2)C(=O)N[C@@H](Cc2cccs2)C(=O)N[C@@H](C(C)C)C(=O)N[C@@H](CC(N)=O)C(=O)N1
2. CCCNC(=O)[C@@H](CCCNC(=N)N)NC(=O)[C@@H]1CSCN1C(=O)[C@@H]1CSCCCC(=O)N[C@@H](Cc2ccc(Cl)cc2)C(=O)N[C@@H](Cc2cccs2)C(=O)N[C@@H](C(C)C)C(=O)N[C@@H](CC(N)=O)C(=O)N1
3. CCNC(=O)[C@@H](CCCNC(=N)N)NC(=O)[C@@H]1CCCN1C(=O)[C@@H]1CSSCCC(=O)N[C@@H](Cc2ccc(Cl)cc2)C(=O)N[C@@H](Cc2cccs2)C(=O)N[C@@H](C(C)C)C(=O)N[C@@H](CC(N)=O)C(=O)N1

1. 24
2. 31
3. 11
